Target: UniProtKB P30304
Experiment: Inhibition of recombinant human Cdc25A at 10 uM using OMFP as substrate preincubated for 5 to 8 mins and measured every 5 mins 60 mins by fluorescence based assay relative to control
PROPERTY_LABEL: inhibition (%)

Would you please look over these solved cases?
Can you look up the measured inhibition of N#Cc1ccccc1Cn1cc(CNC2=C(Cl)C(=O)c3cccnc3C2=O)nn1 for me? 57.2

// next record N#Cc1cccc(Cn2cc(CNC3=C(Cl)C(=O)c4cccnc4C3=O)nn2)c1 69.1

(P) Cc1ccc(Cn2cc(CNC3=C(Cl)C(=O)c4cccnc4C3=O)nn2)cc1
(Q) O=C1C(Cl)=C(NCCN2CCOCC2)C(=O)c2ncccc21
Of P versus Q , which is the one with smaller reported inhibition? Lab note: record the label of whichever item you select. Q
(Q: 48.4%, P: 74.4%)

###

Molecular target: M-phase inducer phosphatase 1 (Homo sapiens, UniProt P30304)
Sequence (P30304 whole entry): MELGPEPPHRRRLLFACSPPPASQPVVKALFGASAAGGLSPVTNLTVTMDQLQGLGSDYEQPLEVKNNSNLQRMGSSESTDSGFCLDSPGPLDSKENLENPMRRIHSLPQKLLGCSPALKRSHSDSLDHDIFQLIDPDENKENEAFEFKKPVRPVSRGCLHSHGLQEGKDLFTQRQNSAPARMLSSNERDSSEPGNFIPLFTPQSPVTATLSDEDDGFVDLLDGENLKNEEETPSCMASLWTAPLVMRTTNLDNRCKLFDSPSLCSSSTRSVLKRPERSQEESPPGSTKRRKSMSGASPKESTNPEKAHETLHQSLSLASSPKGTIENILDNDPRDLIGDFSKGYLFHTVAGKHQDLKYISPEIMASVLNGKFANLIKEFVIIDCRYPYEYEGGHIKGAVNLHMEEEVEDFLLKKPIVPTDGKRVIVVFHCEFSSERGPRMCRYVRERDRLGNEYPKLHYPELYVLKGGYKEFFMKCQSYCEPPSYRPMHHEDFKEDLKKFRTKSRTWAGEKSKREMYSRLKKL
Test: Inhibition of recombinant human Cdc25A using OMFP as substrate preincubated for 5 to 8 mins and measured every 5 mins 60 mins by fluorescence based assay
PROPERTY_LABEL: IC50 (nM)

Can you look up the measured IC50 of Cc1ccc(Cn2cc(CNC3=C(Cl)C(=O)c4cccnc4C3=O)nn2)cc1 for me? 530

(P) N#Cc1cccc(Cn2cc(CNC3=C(Cl)C(=O)c4cccnc4C3=O)nn2)c1
(Q) N#Cc1ccccc1Cn1cc(CNC2=C(Cl)C(=O)c3cccnc3C2=O)nn1
Consider P and Q . Which of these has its IC50 at a higher number? Lab note: record the label of whichever item you select. Q
(Q: 1200 nM, P: 540 nM)

###

Test system: A549
Assay: Antiproliferative activity against human A549 cells assessed as reduction in cell viability incubated for 72 hrs by SRB assay
Assay type: functional, cell-based
Details: A549, 72 h
PROPERTY_LABEL: IC50 (µM)

Would you please look over these solved cases?
Can you look up the measured IC50 of N#Cc1ccccc1Cn1cc(CNC2=C(Cl)C(=O)c3cccnc3C2=O)nn1 for me? 4.5

// next record N#Cc1cccc(Cn2cc(CNC3=C(Cl)C(=O)c4cccnc4C3=O)nn2)c1 4.92

// next record Cc1ccc(Cn2cc(CNC3=C(Cl)C(=O)c4cccnc4C3=O)nn2)cc1 3.92

(1) O=C1C(Cl)=C(NCCN2CCOCC2)C(=O)c2ncccc21
(2) CC(=O)O[C@H]1C(=O)[C@@]2(C)[C@H]([C@H](OC(=O)c3ccccc3)[C@]3(O)C[C@H](OC(=O)[C@H](O)[C@@H](NC(=O)c4ccccc4)c4ccccc4)C(C)=C1C3(C)C)[C@]1(OC(C)=O)CO[C@@H]1C[C@@H]2O
Of 1 versus 2 , which is the one with smaller reported IC50? Lab note: record the label of whichever item you select. 2
(2: 0.00752 µM, 1: 2.76 µM)

###

Tested on: MDA-MB-231
Assay: Antiproliferative activity against human MDA-MB-231 cells assessed as reduction in cell viability incubated for 72 hrs by SRB assay
Assay type: functional, cell-based
Conditions: MDA-MB-231, 72 h
PROPERTY_LABEL: IC50 (µM)

Can you look up the measured IC50 of Cc1ccc(Cn2cc(CNC3=C(Cl)C(=O)c4cccnc4C3=O)nn2)cc1 for me? 4.63

// next record O=C1C(Cl)=C(NCCN2CCOCC2)C(=O)c2ncccc21 4.97

// next record N#Cc1ccccc1Cn1cc(CNC2=C(Cl)C(=O)c3cccnc3C2=O)nn1 4.86

// next record N#Cc1cccc(Cn2cc(CNC3=C(Cl)C(=O)c4cccnc4C3=O)nn2)c1 4.9

###

Molecular target: M-phase inducer phosphatase 3 (Homo sapiens)
Sequence (P30307 whole entry): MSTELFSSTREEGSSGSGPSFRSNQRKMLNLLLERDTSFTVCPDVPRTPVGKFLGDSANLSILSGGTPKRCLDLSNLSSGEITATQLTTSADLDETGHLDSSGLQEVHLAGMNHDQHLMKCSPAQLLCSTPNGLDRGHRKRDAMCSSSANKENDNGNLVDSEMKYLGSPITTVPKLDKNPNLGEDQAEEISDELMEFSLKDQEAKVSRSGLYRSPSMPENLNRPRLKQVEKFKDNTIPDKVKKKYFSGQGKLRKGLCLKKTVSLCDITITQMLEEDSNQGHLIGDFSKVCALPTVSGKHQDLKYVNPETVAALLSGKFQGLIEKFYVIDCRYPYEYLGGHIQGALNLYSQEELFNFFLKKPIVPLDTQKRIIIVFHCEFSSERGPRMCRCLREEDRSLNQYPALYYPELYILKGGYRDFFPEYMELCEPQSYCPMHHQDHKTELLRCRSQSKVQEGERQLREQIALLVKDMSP
Test: Inhibition of recombinant human Cdc25C using OMFP as substrate preincubated for 5 to 8 mins and measured every 5 mins 60 mins by fluorescence based assay
pIC50: −log10 of the molar value.
PROPERTY_LABEL: pIC50

Can you look up the measured pIC50 of Cc1ccc(Cn2cc(CNC3=C(Cl)C(=O)c4cccnc4C3=O)nn2)cc1 for me? 7.05

(I) N#Cc1ccccc1Cn1cc(CNC2=C(Cl)C(=O)c3cccnc3C2=O)nn1
(II) N#Cc1cccc(Cn2cc(CNC3=C(Cl)C(=O)c4cccnc4C3=O)nn2)c1
Consider I and II . Which of these has its pIC50 at a higher number? Lab note: record the label of whichever item you select. II
